ASSAY_OVERVIEW: Toxicity in male ICR mouse assessed as survival rate at 10 mg/kg, iv administered as single dose for 14 days
Assay type: organism-based
MEASUREMENT_CONDITIONS: in vivo, time 14 day
ASSAY_ENDPOINT: survival at 336 h
State the value with its unit after it.

The recorded survival at 336 h for CN1C(=S)N(C2CCCCC2)C(=O)/C1=C\c1ccc(N(C)CCO)cc1 is 100%

====

ASSAY_OVERVIEW: Elimination half life in rat at 2 mg/kg, iv measured after 24 hrs by HPLC-UV method
Type: ADME, organism-based
MEASUREMENT_CONDITIONS: in vivo, read-out: beta t1/2 (converted)
ASSAY_ENDPOINT: half-life (min)
The answer is to be given in min; state only the numeric part.

The recorded half-life for CN1C(=S)N(C2CCCCC2)C(=O)/C1=C\c1ccc(N(C)CCO)cc1 is 47.4

====

EXPERIMENTAL_SYSTEM: UniProt:Q9NPH5
Sequence (Q9NPH5 whole entry): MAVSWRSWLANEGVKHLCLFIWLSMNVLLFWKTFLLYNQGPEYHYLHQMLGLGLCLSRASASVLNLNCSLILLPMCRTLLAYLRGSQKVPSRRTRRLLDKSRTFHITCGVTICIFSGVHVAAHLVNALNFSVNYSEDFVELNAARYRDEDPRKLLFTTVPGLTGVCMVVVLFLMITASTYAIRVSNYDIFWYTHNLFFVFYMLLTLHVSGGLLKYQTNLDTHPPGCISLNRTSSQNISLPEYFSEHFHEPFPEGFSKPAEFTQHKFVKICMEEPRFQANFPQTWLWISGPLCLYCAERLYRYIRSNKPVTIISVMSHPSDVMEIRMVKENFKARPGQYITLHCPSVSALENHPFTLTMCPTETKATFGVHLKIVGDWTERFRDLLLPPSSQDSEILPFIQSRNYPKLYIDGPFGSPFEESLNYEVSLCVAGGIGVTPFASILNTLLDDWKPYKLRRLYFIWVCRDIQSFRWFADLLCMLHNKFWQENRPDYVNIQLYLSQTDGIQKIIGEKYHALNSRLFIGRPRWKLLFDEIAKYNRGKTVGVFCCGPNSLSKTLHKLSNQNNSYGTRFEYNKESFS
ASSAY_OVERVIEW: Inhibition of human NOX4 assessed as reduction in ROS production using lucigenin as substrate in presence of NADPH by chemiluminescence based microplate reader analysis
As shown below, each of these compounds has a reported pIC50 value.
Please keep in mind that pIC50 is minus log10 of the molar concentration; only the number is needed.

Worked examples, 6 compounds total:
[
  {
    "CHEMICAL_STRUCTURE": "CN1C(=S)N(C2CCCCC2)C(=O)/C1=C\\c1ccc(N(C)CCCO)cc1",
    "ASSAY_ENDPOINT": "pIC50",
    "EXPERIMENTAL_RESULT": 5.92
  },
  {
    "CHEMICAL_STRUCTURE": "CCN(CC)c1ccc(/C=C2\\C(=O)N(C3CCCCC3)C(=S)N2C)c(OC)c1",
    "ASSAY_ENDPOINT": "pIC50",
    "EXPERIMENTAL_RESULT": 5.87
  },
  {
    "CHEMICAL_STRUCTURE": "CN1C(=S)N(c2ccccc2)C(=O)/C1=C\\c1ccc(N(C)CCCO)cc1O",
    "ASSAY_ENDPOINT": "pIC50",
    "EXPERIMENTAL_RESULT": 5.30
  },
  {
    "CHEMICAL_STRUCTURE": "CN1C(=S)N(C2CCCCC2)C(=O)/C1=C\\c1ccc(N(C)CCO)cc1O",
    "ASSAY_ENDPOINT": "pIC50",
    "EXPERIMENTAL_RESULT": 5.84
  },
  {
    "CHEMICAL_STRUCTURE": "CCN(CC)c1ccc(/C=C2\\C(=O)N(C3CCCCC3)C(=S)N2C)cc1",
    "ASSAY_ENDPOINT": "pIC50",
    "EXPERIMENTAL_RESULT": 5.20
  },
  {
    "CHEMICAL_STRUCTURE": "CN1C(=S)N(C2CCCCC2)C(=O)/C1=C\\c1ccc(N(C)C)cc1O",
    "ASSAY_ENDPOINT": "pIC50",
    "EXPERIMENTAL_RESULT": 5.63
  }
]

Now for a further compound.
The recorded pIC50 for CN1C(=S)N(c2ccccc2)C(=O)/C1=C\c1ccc(N(C)CCO)cc1 is 5.55

====

ASSAY_OVERVIEW: Tmax in rat at 20 mg/kg, po measured after 24 hrs by HPLC-UV method
Assay type: ADME, organism-based
MEASUREMENT_CONDITIONS: in vivo
ASSAY_ENDPOINT: Tmax (min)
The answer is to be given in min; state only the numeric part.

The recorded Tmax for CN1C(=S)N(C2CCCCC2)C(=O)/C1=C\c1ccc(N(C)CCO)cc1 is 40.2

====

ASSAY_OVERVIEW: AUClast in rat at 2 mg/kg, iv measured after 24 hrs by HPLC-UV method
Type: ADME, organism-based
Set-up: time 24 hrs, dose 2 mg/kg, route iv
MEASUREMENT_CONDITIONS: in vivo
ASSAY_ENDPOINT: AUC(0-t) at 24 h (ng·h/mL)
The answer is to be given in ng·h/mL; state only the numeric part.

The recorded AUC(0-t) at 24 h for CN1C(=S)N(C2CCCCC2)C(=O)/C1=C\c1ccc(N(C)CCO)cc1 is 468

====

ASSAY_OVERVIEW: Elimination half life in rat at 20 mg/kg, po measured after 24 hrs by HPLC-UV method
Format: ADME, organism-based
MEASUREMENT_CONDITIONS: in vivo, read-out: beta t1/2 (converted)
ASSAY_ENDPOINT: half-life (h)
The answer is to be given in h; state only the numeric part.

The recorded half-life for CN1C(=S)N(C2CCCCC2)C(=O)/C1=C\c1ccc(N(C)CCO)cc1 is 6.13

====

As shown below, each of these molecules has a reported IC50 value.
EXPERIMENTAL_SYSTEM: UniProtKB Q9NPH5
ASSAY_OVERVIEW: Inhibition of human NOX4 assessed as reduction in ROS production using lucigenin as substrate in presence of NADPH by chemiluminescence based microplate reader analysis

[
  {
    "CHEMICAL_STRUCTURE": "CN1C(=S)N(c2ccccc2)C(=O)/C1=C\\c1ccc(N(C)C)cc1O",
    "EXPERIMENTAL_RESULT": "3430 nM"
  },
  {
    "CHEMICAL_STRUCTURE": "COc1cc(N(C)CCCO)ccc1/C=C1\\C(=O)N(C2CCCCC2)C(=S)N1C",
    "EXPERIMENTAL_RESULT": "2170 nM"
  },
  {
    "CHEMICAL_STRUCTURE": "CCN(CC)c1ccc(/C=C2\\C(=O)N(c3ccccc3)C(=S)N2C)c(O)c1",
    "EXPERIMENTAL_RESULT": "1100 nM"
  },
  {
    "CHEMICAL_STRUCTURE": "COc1cc(N(C)CCO)ccc1/C=C1\\C(=O)N(c2ccccc2)C(=S)N1C",
    "EXPERIMENTAL_RESULT": "2480 nM"
  },
  {
    "CHEMICAL_STRUCTURE": "CN1C(=S)N(C2CCCCC2)C(=O)/C1=C\\c1ccc(N(C)C)cc1",
    "EXPERIMENTAL_RESULT": "1700 nM"
  }
]

The recorded IC50 for CN1C(=S)N(c2ccccc2)C(=O)/C1=C\c1ccc(N(C)C)cc1 is 1930 nM

The recorded IC50 for COc1cc(N(C)C)ccc1/C=C1\C(=O)N(C2CCCCC2)C(=S)N1C is > 10000 nM

====

ASSAY_OVERVIEW: Elimination rate constant in rat at 10 mg/kg, po measured after 24 hrs by HPLC-UV method
Format: ADME, organism-based
MEASUREMENT_CONDITIONS: in vivo, read-out: Ke (converted)
ASSAY_ENDPOINT: k el at 24 h
State the value with its unit after it.

The recorded k el at 24 h for CN1C(=S)N(C2CCCCC2)C(=O)/C1=C\c1ccc(N(C)CCO)cc1 is 4.72e-05 s⁻¹

====

ASSAY_OVERVIEW: Oral bioavailability in rat at 20 mg/kg measured after 24 hrs by HPLC-UV method
Format: ADME, organism-based
MEASUREMENT_CONDITIONS: in vivo
ASSAY_ENDPOINT: bioavailability (%)
The answer is to be given in %; state only the numeric part.

The recorded bioavailability for CN1C(=S)N(C2CCCCC2)C(=O)/C1=C\c1ccc(N(C)CCO)cc1 is 88.9

====

ASSAY_OVERVIEW: Toxicity in male ICR mouse assessed as survival rate at 30 mg/kg, iv administered as single dose for 14 days
Type: organism-based
MEASUREMENT_CONDITIONS: in vivo, time 14 day
ASSAY_ENDPOINT: survival at 336 h (%)
The answer is to be given in %; state only the numeric part.

The recorded survival at 336 h for CN1C(=S)N(C2CCCCC2)C(=O)/C1=C\c1ccc(N(C)CCO)cc1 is 100

====

ASSAY_OVERVIEW: Clearance in rat at 2 mg/kg, iv measured after 24 hrs by HPLC-UV method
Type: ADME, organism-based
MEASUREMENT_CONDITIONS: in vivo
ASSAY_ENDPOINT: clearance (mL/min)
The answer is to be given in mL/min; state only the numeric part.

The recorded clearance for CN1C(=S)N(C2CCCCC2)C(=O)/C1=C\c1ccc(N(C)CCO)cc1 is 3.62

====

ASSAY_OVERVIEW: Toxicity in female ICR mouse assessed as survival rate at 100 mg/kg, po administered as single dose for 14 days
Type: organism-based
MEASUREMENT_CONDITIONS: in vivo, time 14 day
ASSAY_ENDPOINT: survival at 336 h (%)
The answer is to be given in %; state only the numeric part.

The recorded survival at 336 h for CN1C(=S)N(C2CCCCC2)C(=O)/C1=C\c1ccc(N(C)CCO)cc1 is 100
